Origin of measurements: the supplement of paper PMC12042874

Experiment: amyloid nucleation score (Sup35N fusion, yeast selection) (log enrichment); library NNK3; higher = more nucleation; inactive = no reads after selection;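 note: zero at mode of non-aggregating sequences after 7 days selection at 30°C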
Readout name: amyloid nucleation score

Consider the worked cases shown below.
VLTIRRFLRVSHFRNQWFPV inactive
VEIISFSVNKTFQAVFGVDK 1.47
FMPTVQVRLQC inactive
TYYRCSSANLSSGRAEVYKY inactive
IVSCLSCHLCLKCYSPLCVL 0.851

Quick batch: amyloid nucleation score for everything below.
1. WIIEGSRLRC
2. HLFGDFDKWVDKLWRYNRVD
3. VIVASVVLKW
4. NVDHRTKSWLINWFTSLELL

inactive
0.985
inactive
inactive

* * *

Experiment: amyloid nucleation score (Sup35N fusion, yeast selection) (log enrichment); library NNK2; higher = more nucleation; inactive = no reads after selection
Readout name: amyloid nucleation score
Numbers only.

RLMDGYSSV 0.548
GYGRLIWLGACRL 1.18
GYNGMGRCINWVRKYRWLLW 5.36
TLDVGLGAAQCVIGISGWYE 1.1
INFYIDIWISIRREGFAFRP 1.97
FMGRMTLGHKNAWVSSDRH -1.33
ILLPSFRPLRQAAAG -0.311
LMHSQCSFSNELYVDSEARG 0.093
DSVIRRNKNTSTL -0.275
MCCYVSCQ 2.55

Quick batch: amyloid nucleation score for everything below.
1. WPSLVLGYDMLGVI
2. FSFIGFLNRNKSAALCKMDI
3. DAMRVASEHIIVTAAAS
4. ISIYIITVILFLVDALYMLR
5. HHLLPWGWRPVYGSRLRCTL

-0.025
-1.16
2.72
-0.809
4.23

Quick batch: amyloid nucleation score for everything below.
1. MCRRFNFIIEVVVNASMTIR
2. IGVSNLLCMFTLDPKGIQDG
3. SFELFCVWGR
4. YRLFWFNC

1: -1.31; 2: 8.49; 3: -0.827; 4: 1.74

Quick batch: amyloid nucleation score for everything below.
1. FSLWSLERLKPIGLSSRMSG
2. NSLVYCKKPSLPFHHGCK

1. 3.45
2. -0.032

Quick batch: amyloid nucleation score for everything below.
1. IAITDFVLVSVLHSKWCIF
2. MLFSTATYSSGRRFDFVEIA
3. YEGYLVSVQLRRMWDVQLGP

1: -0.246; 2: 0.422; 3: 3.79

Quick batch: amyloid nucleation score for everything below.
1. PMFVSLVKFTYWSCTVFLGA
2. RLQSSRSGVKAL
3. RVPFFVGAG
4. FFLLAGVLDWAYGWYYIVWK
5. KCGSSVVYFIVYQRKLKWGW
6. CEFQILSN
7. LRLFSFIVMGHNGVKHLVLC
8. SFAMSRHLQPGGNEQFRM

-0.582
0.208
-0.271
0.147
0.961
-0.381
0.011
1.16

Quick batch: amyloid nucleation score for everything below.
1. TSANLLLYRVLKSFLARQHQ
2. SICVRKYVKFWVWAMNTLFR

0.062
-0.174

* * *

Experiment: amyloid nucleation score (Sup35N fusion, yeast selection) (log enrichment); library NNK1; higher = more nucleation; inactive = no reads after selection
Readout name: amyloid nucleation score
One number for each entry.

NEGIMPLVNHSKQEEPGVYR 0.753
CLYWFLKEHFC 1.06
FDGMYNDVRTRNVGARYF 0.552
NCVRSCISMQVYCTPAVVMY 5.48
SMFLLRPYRVCFCSRRFVTV 0.253

Quick batch: amyloid nucleation score for everything below.
1. SSLGAIYGLINQRPA
2. EWGNRRVFYVVMDGSRCPAS
3. CPGFFILVQCIVYMDTDCGF
4. YELRFMRVEQGSQYREVS
5. LFHANQKHAGWSRASTLEAC
6. LSIAHYGLNQSMSVRYREST
7. CSNRWYVNMFVHWIFVHLGS

[0.776, 0.1, 3.81, -0.159, -0.954, 0.771, 1.47]

Quick batch: amyloid nucleation score for everything below.
1. VIGVRAQYLCRHTLSVRYRK
2. HYSFFE

1. 1.67
2. -0.806

Quick batch: amyloid nucleation score for everything below.
1. TWTCDSVCCVRNKEVCGVYQ
2. KTANGNCHENSQSDVFKSVS
3. NMTSYSIYGELE
4. VPCGKLIISGGVQNCIYYWE
5. RYLVALFSMYKWYGVEKDWK
6. LFHCRSIDRNLYYRHAFLIY
7. SACFMMGLDDWCDSR

0.033
0.346
-0.341
7.31
0.954
0.466
-0.529

* * *

Experiment: amyloid nucleation score (Sup35N fusion, yeast selection) (log enrichment); library NNK1; higher = more nucleation; inactive = no reads after selection
Readout name: amyloid nucleation score

Consider the worked cases shown below.
VKCYLDLINFRYLLDLGDEA 0.066
NRRSSKLIN inactive
LLYSMDRQVLMSAISLLSIT 0.903
VHTMSLWCDISQLIVPVNRV 1.1
FVFKIWQSD 0.116

Quick batch: amyloid nucleation score for everything below.
1. WLFLTYNVMGLKVGKFAGHT
2. FPESNKLMV
3. GQIIMCAARLWLGKGCVS
4. AYTCHYQGGGLVNLVDVGYG

1: -0.437; 2: 1.06; 3: -0.588; 4: 0.353

Quick batch: amyloid nucleation score for everything below.
1. IEQMCTHVNYFGD
2. VGFNKL
3. WLVQAQALQGWKCFLHKISF
4. INLCAFGLPLVKVLHWLLYL
5. LKSSNVPTRNVMRYMPSAFE
6. ISNGFQSV

1: -0.548; 2: 0.013; 3: -0.186; 4: inactive; 5: -0.292; 6: -0.027

Quick batch: amyloid nucleation score for everything below.
1. PFSGFLCSRVCAMVDKTLFS
2. VCFMKCLLSCAIEYSRRLDI
3. GCTSGGLCIGPPRSV
4. FRYKDGCSFSTAVDYSCRMF
5. GLVTRMSQTHPVSYNHITIL

1. inactive
2. 1.9
3. 0.906
4. 1.06
5. -0.072

Quick batch: amyloid nucleation score for everything below.
1. IGYRCIVLS
2. VVLEHVDYHS
3. ELRLSLYLRKRRQYFRFVLK

1. 1.24
2. 0.822
3. -0.516

Quick batch: amyloid nucleation score for everything below.
1. YTGKRKT
2. YCGMKVDVVIVGRHVFRISF
3. DMTAVYLFVTVYSYDLSC
4. DIVSVVVWLKQYLWFEQWNV
5. KHRFCSIEWVK
6. AIYVRW

-0.5
0.512
0.569
0.644
1.31
1.08

Quick batch: amyloid nucleation score for everything below.
1. KNVYDYFWLDNCYAIDIASM
2. SVARCASPMQSLSLRGRPEG
3. LHAGRDSAASGPRISIWKPM
4. SKYIGVVSPTWLH
5. CVMYSRGFYCADCVCNLMPC
6. FVSNGSYVGIS
7. INELNTLLGI

1: 0.427; 2: inactive; 3: 0.077; 4: 0.428; 5: 4.85; 6: -0.42; 7: 0.498

Quick batch: amyloid nucleation score for everything below.
1. LSMNICSLNSSRYKPP
2. PGSWVTESLMTYRLCNLSNV
3. SLYRIFRKASFESCGLEWFA
4. QKMYDILVIDLYESGDRPFV

1: 2.79; 2: 0.455; 3: 0.191; 4: 0.532

Quick batch: amyloid nucleation score for everything below.
1. TIFGHVRGSYETKWMWAPWR
2. PYCFYPRCC
3. ARWGFTWVKA
4. GGLDSNRQLVKFYTSWNYNC
5. TNTSWVFVVCIEHKEMDQAV
6. LVLVNSTWCTYPCGWMCEME

1. 2.98
2. 0.015
3. 0.372
4. -0.057
5. 5.9
6. 0.488

* * *

Experiment: amyloid nucleation score (Sup35N fusion, yeast selection) (log enrichment); library NNK1; higher = more nucleation; inactive = no reads after selection
Exercise: state measured amyloid nucleation score for each of the substances provided.
Numbers only.

Consider the worked cases shown below.
YFLGQMLISEGIMSVAFCVR 5.13
FNVLCPRRQNLSGVELD -0.02
LMVFAIRDLNFRHTILQPVP -0.081
HSPCMPLTCSQTWHSLDLPF -0.304

Quick batch: amyloid nucleation score for everything below.
1. GDAMASFPAACCGTRCCGFV
2. SGDCVL
3. EQCTLVVSYGVWGHRSSCVG

1. 0.41
2. 1.43
3. 0.93

Quick batch: amyloid nucleation score for everything below.
1. WLVVHSQLFSSCNCLKNTVP
2. IYSNKRTNMLMCMYNSVRGH
3. LLVPHYFLEL
4. KCHRPWYSCLIC

1: 0.968; 2: 0.243; 3: 0.222; 4: 1.98

Quick batch: amyloid nucleation score for everything below.
1. AFLCESFSLVWYWLLWEWRW
2. KYIYNPSPLGSREDDTKACR
3. RPRICLWWSLNQMDVWNRDR
4. TAYSNG
5. VGRSQRMQKTLKVSVWYWIN
6. RLVKSEDSNKNGLDLCRYEL
7. LVSQLSFACN

1. -0.126
2. 0.937
3. 2.17
4. -0.814
5. 0.117
6. 0.753
7. 0.92

Quick batch: amyloid nucleation score for everything below.
1. GIRQLMAPYKPERWCWQRVG
2. DLPLTYMCSN
3. VVSRIDPCTWHCAMIKGHRY
4. NVLVQGFG
5. VVVGDSPNGNEEDDWSSC
6. TCRCTKLTSAYMLRVWSVQF
7. EVMVSAGVTIACSPVVIRFR

[0.344, 0.359, -0.332, -0.017, -2.03, -0.332, 1.47]

Quick batch: amyloid nucleation score for everything below.
1. LCFMLEKWHLF
2. IRGVKSYLSLITLFSKTHLV
3. QRIVTG
4. ISWMLLVLSFSMTVLNIRWN
5. FFKGGVNGIFINNGSTFG
6. LAPASLSSSGYKNCFNRTVR

1. -0.566
2. -0.833
3. -0.123
4. -0.199
5. 4.91
6. 4.08

Quick batch: amyloid nucleation score for everything below.
1. FLFRFQKCLFNCFVLGLVSR
2. EYLFLRRM

1. -0.206
2. 2.92

Quick batch: amyloid nucleation score for everything below.
1. IRDNDDLLWMEGRSWKWSRR
2. ADDYCQPGKIGVNNGPHRKR
3. VLISPGFLSVARCLSLDTLF
4. WSTNNCCYA
5. IISVMTIARGNPVCTHIKYG
6. DYRADFNNFVFEERSSYISV

1: 0.27; 2: -0.657; 3: -0.343; 4: -1.38; 5: 0.169; 6: -0.236

Quick batch: amyloid nucleation score for everything below.
1. VIAMDNDRYFGSVFSYIRMN
2. VLMFIINSCKR
3. CVSPSVTNFAELVSIVISPS
4. RCLVFTLKRV
5. LRELSVCWPT

-0.147
7.03
0.652
0.358
-0.153
